Molecular target: Tyrosine-protein kinase ITK/TSK (Homo sapiens);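 also: values are mean percent inhibition of ITK from the GSK PKIS screen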
Details: at 1 µM

Mol Smiles	Target Of Assay	inhibition
COc1ccc2c(-c3ccnc(Nc4cccc(OC(F)(F)F)c4)n3)cnn2n1	Tyrosine-protein kinase ITK/TSK (Homo sapiens)	2.38%
NS(=O)(=O)c1ccc(Nc2ncc(-c3ccccc3)o2)cc1	Tyrosine-protein kinase ITK/TSK (Homo sapiens)	2.34%
Clc1ccc(-c2nn3ncccc3c2-c2ccnc(Nc3ccccc3)n2)cc1	Tyrosine-protein kinase ITK/TSK (Homo sapiens)	2.29%
CCn1c(-c2nonc2N)nc2c(C#CC(C)(C)O)nc(OC[C@H](N)c3ccccc3)cc21	Tyrosine-protein kinase ITK/TSK (Homo sapiens)	1.49%
COc1cccc(-n2ncc3c(N/N=C/c4ccc(F)cc4)ncnc32)c1	Tyrosine-protein kinase ITK/TSK (Homo sapiens)	2.7%

---

Target: Serine/threonine-protein kinase MARK2 (Homo sapiens)
Conditions: at 1 µM
Description: GSK_PKIS: PAR-1Balpha mean inhibition at 1 uM [Nanosyn]
In this section, each of the molecules is paired with its reported inhibition.

Mol Smiles	inhibition
CCn1c(-c2nonc2N)nc2cnc(Oc3cccc(NC(=O)c4ccc(N(C)C)cc4)c3)cc21	11%
CS(=O)(=O)CCNCc1ccc(-c2ccc3ncnc(Nc4ccc(OCc5ccccc5)c(C(F)(F)F)c4)c3c2)o1	1.46%
COc1ccc(-c2oc3ncnc(N)c3c2-c2ccc(NC(=O)Nc3cc(C(F)(F)F)ccc3F)cc2)cc1	0.81%
c1cc(-c2cnn3nc(N4CCOCC4)ccc23)nc(NC2CC2)n1	7.93%

---

Measured inhibition, listed per entry.
Target: Dual specificity mitogen-activated protein kinase kinase 1 (Homo sapiens) (UniProt Q02750);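 also: reported value is a mean percent inhibition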
Sequence (Q02750 whole entry): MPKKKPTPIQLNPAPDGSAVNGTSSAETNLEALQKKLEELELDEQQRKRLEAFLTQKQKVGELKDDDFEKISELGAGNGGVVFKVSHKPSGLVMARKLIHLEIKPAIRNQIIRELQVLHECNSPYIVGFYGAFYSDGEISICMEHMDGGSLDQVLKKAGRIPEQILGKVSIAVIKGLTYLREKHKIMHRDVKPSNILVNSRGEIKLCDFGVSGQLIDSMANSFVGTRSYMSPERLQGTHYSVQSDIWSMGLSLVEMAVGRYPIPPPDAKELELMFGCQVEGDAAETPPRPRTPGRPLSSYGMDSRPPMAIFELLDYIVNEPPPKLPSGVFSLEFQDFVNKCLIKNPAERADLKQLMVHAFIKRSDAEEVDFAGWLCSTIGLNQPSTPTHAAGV
Conditions: at 0.1 µM
Readout Type: inhibition

Mol Smiles	Target Of Assay	Readout Type	Recorded Value
COc1ccc2[nH]c3c4[nH]c5ccc(OC)cc5c4c4c(c3c2c1)C(=O)NC4=O	Dual specificity mitogen-activated protein kinase kinase 1 (Homo sapiens) (UniProt Q02750)	inhibition	4.86%
Fc1ccc(-c2cc(-c3c[nH]nc3-c3ccccn3)ccn2)cc1	Dual specificity mitogen-activated protein kinase kinase 1 (Homo sapiens) (UniProt Q02750)	inhibition	5.25%
COc1ccc(-c2oc3ncnc(N)c3c2-c2ccc(NC(=O)Nc3cc(C(F)(F)F)ccc3F)cc2)cc1	Dual specificity mitogen-activated protein kinase kinase 1 (Homo sapiens) (UniProt Q02750)	inhibition	6.74%
COc1ccc(CNC(=O)c2ccc(-c3cc(-c4nnc(C)o4)ccc3C)cc2)cc1	Dual specificity mitogen-activated protein kinase kinase 1 (Homo sapiens) (UniProt Q02750)	inhibition	3.35%
CC(C)COC(=O)c1ccc2c(c1)/C(=C/Nc1ccc(S(N)(=O)=O)cc1)C(=O)N2	Dual specificity mitogen-activated protein kinase kinase 1 (Homo sapiens) (UniProt Q02750)	inhibition	3.79%
Nc1nc(-c2cccc(Cl)c2)c(-c2ccc3ncccc3n2)s1	Dual specificity mitogen-activated protein kinase kinase 1 (Homo sapiens) (UniProt Q02750)	inhibition	5.85%
COC(=O)c1sc(-n2cnc3cc(OC)c(OC)cc32)cc1OCc1ccccc1C(F)(F)F	Dual specificity mitogen-activated protein kinase kinase 1 (Homo sapiens) (UniProt Q02750)	inhibition	5.37%
Nc1nc(-c2ccc(F)cc2)c(-c2ccc3ncccc3n2)s1	Dual specificity mitogen-activated protein kinase kinase 1 (Homo sapiens) (UniProt Q02750)	inhibition	6.1%
CCOc1ccc2c(-c3ccnc(Nc4cccc(C(F)(F)F)c4)n3)cnn2n1	Dual specificity mitogen-activated protein kinase kinase 1 (Homo sapiens) (UniProt Q02750)	inhibition	2.29%
CN(C)CCOc1ccc(-c2nc(-c3ccncc3)c(-c3ccc4c(c3)CC/C4=N\O)[nH]2)cc1	Dual specificity mitogen-activated protein kinase kinase 1 (Homo sapiens) (UniProt Q02750)	inhibition	4.37%

---

Target: Homeodomain-interacting protein kinase 1 (Homo sapiens);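 also: values are mean percent inhibition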
Details: at 1 µM

Mol Smiles	Target Of Assay	inhibition
COc1ccc(-c2cc3c(N)ncnc3o2)cc1	Homeodomain-interacting protein kinase 1 (Homo sapiens)	5.4%
NS(=O)(=O)c1ccc(N/N=C2\C(=O)Nc3ccc4ncccc4c32)cc1	Homeodomain-interacting protein kinase 1 (Homo sapiens)	64.7%
CC(C)(CO)CNC(=O)c1ccc2c(c1)/C(=N/Nc1ccc(S(N)(=O)=O)cc1)C(=O)N2	Homeodomain-interacting protein kinase 1 (Homo sapiens)	13.1%
Cc1cccc(Nc2ncc(-c3ccccc3)o2)c1	Homeodomain-interacting protein kinase 1 (Homo sapiens)	9.25%
CNC(=O)c1cc(-c2ccc(F)cc2)cc(-c2ccc(S(=O)(=O)N3CCCC3)cc2)c1N	Homeodomain-interacting protein kinase 1 (Homo sapiens)	-0.12%
Cc1cccc2c1NC(=O)/C2=N\Nc1ccc(S(N)(=O)=O)cc1	Homeodomain-interacting protein kinase 1 (Homo sapiens)	4.95%
Clc1ccc(-c2nn3ncccc3c2-c2ccnc(Nc3ccccc3)n2)cc1	Homeodomain-interacting protein kinase 1 (Homo sapiens)	3.25%
COc1cccc(-n2ncc3c(N/N=C/c4ccc(F)cc4)ncnc32)c1	Homeodomain-interacting protein kinase 1 (Homo sapiens)	27.1%
COc1ccc(-c2cc(-c3c[nH]nc3-c3ccccn3)ccn2)cc1	Homeodomain-interacting protein kinase 1 (Homo sapiens)	4.88%
[O-][S+]1CCN(Cc2ccc(-c3ccc4ncnc(Nc5ccc(OCc6cccc(F)c6)c(Cl)c5)c4c3)o2)CC1	Homeodomain-interacting protein kinase 1 (Homo sapiens)	1.62%
O=S(=O)(CCNCc1ccc(-c2ccc3ncnc(Nc4ccc(OCc5cccc(F)c5)c(Cl)c4)c3c2)o1)c1ccccc1	Homeodomain-interacting protein kinase 1 (Homo sapiens)	4.11%
COC(=O)c1sc(-n2cnc3cc(OC)c(OC)cc32)cc1OCc1ccccc1C(F)(F)F	Homeodomain-interacting protein kinase 1 (Homo sapiens)	-0.46%
c1ccc(COc2ccc(Nc3ncnc4ccc(-c5ccco5)cc34)cc2)cc1	Homeodomain-interacting protein kinase 1 (Homo sapiens)	-3.68%
COc1cc2ncn(-c3cc(OCc4ccccc4C(F)(F)F)c(C(=O)N(C)C)s3)c2cc1OC	Homeodomain-interacting protein kinase 1 (Homo sapiens)	-0.02%
COC(=O)Nc1nc2ccc(S(=O)(=O)c3ccc(NC(=O)Nc4cc(C(F)(F)F)ccc4F)cc3)cc2[nH]1	Homeodomain-interacting protein kinase 1 (Homo sapiens)	0.3%
CCn1c(-c2nonc2N)nc2ccccc21	Homeodomain-interacting protein kinase 1 (Homo sapiens)	4.99%
N#Cc1c(NC(=O)c2ccc(F)cc2)sc2c1CCCC2	Homeodomain-interacting protein kinase 1 (Homo sapiens)	-1.66%
CN1CCC(n2cnc(-c3ccc(F)cc3)c2-c2ccnc(Nc3ccccc3)n2)CC1	Homeodomain-interacting protein kinase 1 (Homo sapiens)	0.41%
Nc1ncc(-c2cccc(S(N)(=O)=O)c2)c2scc(-c3ccc(F)c(Cl)c3)c12	Homeodomain-interacting protein kinase 1 (Homo sapiens)	3.02%
CN(C)CCOc1ccc(-c2nc(-c3ccncc3)c(-c3ccc4c(c3)CC/C4=N\O)[nH]2)cc1	Homeodomain-interacting protein kinase 1 (Homo sapiens)	17.8%

---

Molecular target: cAMP-dependent protein kinase catalytic subunit alpha (Homo sapiens);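 also: mean percent inhibition of PKA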
Conditions: at 1 µM
Lab note: compare inhibition against 3%. Equal or greater, write 1.0. Smaller, write 0.0.

Mol Smiles	Class Assignment
CCN1CCC(CC(=O)Nc2n[nH]c3nnc(-c4cccc(F)c4F)cc23)CC1	1.0
Fc1cccc(COc2ccc(Nc3ncnc4sc(-c5ccco5)cc34)cc2Cl)c1	0.0
COc1cc2ncn(-c3cc(OCc4ccccc4C(F)(F)F)c(C(=O)N(C)C)s3)c2cc1OC	0.0
COc1cc(N2CCN(C(C)C)CC2)ccc1Nc1nc(Nc2ccc(F)cc2C(N)=O)c2cc[nH]c2n1	1.0
CCn1c(-c2nonc2N)nc2ccccc21	1.0
COc1cc(/C=N/Nc2ncnc3[nH]ncc23)ccc1O	1.0
CS(=O)(=O)CCNCc1coc(-c2ccc3ncnc(Nc4ccc(OCc5ccccc5)cc4)c3c2)c1	0.0
Nc1nc(-c2cccc(Cl)c2)c(-c2ccc3ncccc3n2)s1	1.0
COC(=O)Nc1nc2ccc(Oc3ccc(NC(=O)Nc4cccc(Cl)c4)cc3)cc2[nH]1	0.0
N#Cc1c(NC(=O)c2ccc(F)cc2)sc2c1CCCC2	0.0

---

Molecular target: Ribosomal protein S6 kinase alpha-5 (Homo sapiens) (UniProt O75582);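 also: mean inhibition of MSK1 reported, from a GSK PKIS inhibitor set screen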
Sequence (O75582 whole entry, looked up): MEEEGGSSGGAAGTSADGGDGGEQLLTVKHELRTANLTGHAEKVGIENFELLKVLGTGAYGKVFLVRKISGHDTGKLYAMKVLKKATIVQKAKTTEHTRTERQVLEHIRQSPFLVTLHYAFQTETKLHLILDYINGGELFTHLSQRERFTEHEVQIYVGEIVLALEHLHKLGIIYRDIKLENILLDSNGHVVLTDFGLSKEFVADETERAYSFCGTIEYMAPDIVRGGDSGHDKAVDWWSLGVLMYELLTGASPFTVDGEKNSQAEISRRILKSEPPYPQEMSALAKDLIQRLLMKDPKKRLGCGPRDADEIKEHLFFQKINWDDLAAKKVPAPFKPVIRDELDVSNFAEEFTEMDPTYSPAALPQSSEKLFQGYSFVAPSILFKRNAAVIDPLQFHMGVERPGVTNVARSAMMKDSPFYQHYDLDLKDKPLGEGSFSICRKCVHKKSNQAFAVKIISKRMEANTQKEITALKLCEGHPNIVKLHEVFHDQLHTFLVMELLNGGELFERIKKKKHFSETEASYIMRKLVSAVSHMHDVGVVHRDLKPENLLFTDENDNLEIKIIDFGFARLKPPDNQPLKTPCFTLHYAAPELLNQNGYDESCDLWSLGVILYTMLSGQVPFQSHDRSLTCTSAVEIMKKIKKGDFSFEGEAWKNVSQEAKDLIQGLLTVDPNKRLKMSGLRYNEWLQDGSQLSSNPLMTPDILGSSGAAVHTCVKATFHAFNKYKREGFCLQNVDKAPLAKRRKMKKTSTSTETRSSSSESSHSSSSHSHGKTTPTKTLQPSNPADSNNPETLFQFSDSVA
Settings: at 0.1 µM
In this section we review reported inhibition values for a set of molecules.
Readout Type: inhibition (%)

Mol Smiles	Units	Recorded Value
O=C(Nc1n[nH]c2cc(-c3ccc(F)cc3)ccc12)C1CC1	%	13.8
CNC(=O)c1cncc(/C=C/c2ccccc2Cl)c1	%	3.05
COc1cc(/C=N/Nc2ncnc3[nH]ncc23)ccc1O	%	4.13
CNC(=O)c1cccc(C#Cc2cncnc2Nc2ccc(OCc3cccc(F)c3)c(Cl)c2)c1	%	-0.16
Nc1nc(-c2cccc(Cl)c2)c(-c2ccc3ncccc3n2)s1	%	9.72
CCCN(CCS(C)(=O)=O)Cc1ccc(-c2ccc3ncnc(Nc4ccc(OCc5cccc(F)c5)c(Cl)c4)c3c2)o1	%	7.14
COc1ccc(CNC(=O)c2ccc(-c3cc(-c4nnc(C)o4)ccc3C)cc2)cc1	%	9.25
COc1cc(N2CCN(C(C)C)CC2)ccc1Nc1nc(Nc2ccc(F)cc2C(N)=O)c2cc[nH]c2n1	%	1.85
COc1ccc(-c2cc3c(N)ncnc3o2)cc1	%	-2.51
COc1ccc(-c2nn3ncccc3c2-c2ccnc(Nc3ccc4c(c3)OCCO4)n2)cc1	%	0.41
CN(C)CCOc1ccc(-c2nc(-c3ccncc3)c(-c3ccc4c(c3)CC/C4=N\O)[nH]2)cc1	%	3.39
O=C(O[C@H]1CN[C@H](C#Cc2cc3ncnc(Nc4ccc(Cc5ccccc5)cc4)c3s2)C1)N1CCOCC1	%	4.51
CCN1CCC(CC(=O)Nc2n[nH]c3nnc(-c4cccc(F)c4F)cc23)CC1	%	0.93
c1ccc(-c2nc3n(c2-c2ccc4c(c2)OCO4)CCC3)nc1	%	8.97
N#Cc1c(NC(=O)CN2CCOCC2)sc2c1CCCC2	%	3.16
COc1ccc(-c2oc3ncnc(N)c3c2-c2ccc(NC(=O)Nc3cc(C(F)(F)F)ccc3F)cc2)cc1	%	5.16
CC(C)(CO)CNC(=O)c1ccc2c(c1)/C(=N/Nc1ccc(S(N)(=O)=O)cc1)C(=O)N2	%	0.88
COc1cccc(-n2ncc3c(N/N=C/c4ccc(F)cc4)ncnc32)c1	%	4.05
Fc1cccc(COc2ccc(Nc3ncnc4sc(-c5ccco5)cc34)cc2Cl)c1	%	8.97
c1ccc(COc2ccc(Nc3ncnc4ccc(-c5ccco5)cc34)cc2)cc1	%	0.07
